Measurement target: recombinant human CK2 (RRββ-holoenzyme) (Homo sapiens)
Sequence (P68400 whole entry): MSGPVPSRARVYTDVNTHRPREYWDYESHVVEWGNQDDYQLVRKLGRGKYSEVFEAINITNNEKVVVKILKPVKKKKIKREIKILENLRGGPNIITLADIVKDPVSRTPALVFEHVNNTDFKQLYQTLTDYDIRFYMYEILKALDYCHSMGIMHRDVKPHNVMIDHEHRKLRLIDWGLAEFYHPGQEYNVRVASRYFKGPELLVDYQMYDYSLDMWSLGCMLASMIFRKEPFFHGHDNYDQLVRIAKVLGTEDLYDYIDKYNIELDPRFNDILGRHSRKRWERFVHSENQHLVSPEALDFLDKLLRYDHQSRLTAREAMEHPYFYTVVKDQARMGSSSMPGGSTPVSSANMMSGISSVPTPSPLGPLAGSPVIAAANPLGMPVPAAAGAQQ
Sequence (P67870 whole entry partner): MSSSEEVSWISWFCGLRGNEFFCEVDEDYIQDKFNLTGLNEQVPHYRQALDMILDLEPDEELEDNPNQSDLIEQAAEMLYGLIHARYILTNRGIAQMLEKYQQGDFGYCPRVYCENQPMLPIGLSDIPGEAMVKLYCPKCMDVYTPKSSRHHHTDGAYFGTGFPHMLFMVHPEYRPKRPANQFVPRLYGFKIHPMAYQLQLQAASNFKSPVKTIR
Assay: CK2 Kinase Assay (33P-ATP, substrate peptide RRRDDDSDDD)
Applied conditions: final ATP concentration 15 μM, 10 min at 30° C.; read-out: protein kinase CK2 IC50
Assay metric: pIC50
Would you please state pIC50, meaning minus log10 of the concentration in mol/L, as a bare number?

Can you share its pIC50? I mean this molecule: O=C(O)c1nnn2c1nc(Nc1cccc(Cl)c1)c1ccncc12 [Compound 1]
7.62

###

System: MCF7 (breast)
Assay: In vitro cytotoxic activity MTT assay, MCF7
Assay type: cell-based
Applied conditions: Homo sapiens, cells exposed for 96 hours, read-out: Cytotoxicity activity IC50, MCF7 (breast)
Assay metric: IC50 (µM)
Note: unit µM is implicit; provide only the numeric part.

Can you share its IC50? I mean this compound: O=C(O)c1nnn2c1nc(Nc1cccc(Cl)c1)c1ccncc12
4.7
